assay.target: furin, P09958;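 also: purified furin at 1:10 enzyme:substrate in 50 mM HEPES pH 7.5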
Sequence (P09958 whole entry): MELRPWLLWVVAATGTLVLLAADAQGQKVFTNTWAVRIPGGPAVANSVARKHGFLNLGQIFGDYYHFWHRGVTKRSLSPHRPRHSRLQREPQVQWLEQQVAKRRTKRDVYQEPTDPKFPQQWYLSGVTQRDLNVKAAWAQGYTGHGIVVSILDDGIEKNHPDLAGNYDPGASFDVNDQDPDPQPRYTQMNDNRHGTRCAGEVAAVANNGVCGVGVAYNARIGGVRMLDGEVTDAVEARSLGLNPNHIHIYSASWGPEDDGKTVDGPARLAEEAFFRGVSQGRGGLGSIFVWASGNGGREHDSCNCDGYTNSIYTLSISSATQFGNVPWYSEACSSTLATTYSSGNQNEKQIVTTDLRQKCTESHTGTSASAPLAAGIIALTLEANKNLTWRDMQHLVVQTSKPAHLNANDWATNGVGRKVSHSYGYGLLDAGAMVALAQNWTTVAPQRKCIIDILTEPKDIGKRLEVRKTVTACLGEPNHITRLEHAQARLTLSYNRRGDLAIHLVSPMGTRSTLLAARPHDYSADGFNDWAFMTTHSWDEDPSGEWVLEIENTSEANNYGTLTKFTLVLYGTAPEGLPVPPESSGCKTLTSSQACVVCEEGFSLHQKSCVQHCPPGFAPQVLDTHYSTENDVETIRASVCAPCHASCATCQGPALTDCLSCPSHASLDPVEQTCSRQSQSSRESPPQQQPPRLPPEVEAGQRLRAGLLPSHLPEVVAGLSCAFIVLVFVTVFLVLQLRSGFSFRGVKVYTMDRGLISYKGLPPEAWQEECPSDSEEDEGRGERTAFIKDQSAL
procedure.text: furin cleavage Z-score vs untreated control; higher = more cleavage, active = 3.5 or more, inactive = 1 or less, 8 variable residues between constant flanks
particulars: 30 min
This is one part of the list. How many sequences the whole screen found active is unknown.
Lab note: assign the record to one of TRUE = active, FALSE = inactive

Answered examples (2):
CARARRRSAEAGNASASA [FS-2889]; TRUE
CAEVPCHRESAGNASASA [HC2392]; FALSE

Which result was noted for this sequence in the test: CARCVRICSKAGNASASA [FS-2899]
FALSE

For CADVMEECSQAGNASASA [HC1810] , what call appears in the results of this test?
FALSE

For this sequence, state the assay outcome: CAVVCCSMFYAGNASASA [HC2067]
FALSE

Could you please tell me the result logged for CARARRSMDEAGNASASA [FS-2203] in this assay?
TRUE

Assay result, entry CAGPSRQNRGAGNASASA [FS-1330] — outcome?
FALSE

Write down the call the test reported for this sequence. Item: CARARRRTPTAGNASASA [FS-1995]
FALSE

Outcome logged for CARGRRKTGEAGNASASA [FS-3251] in this assay:
FALSE

Hi team, can someone confirm the assay call for CAGPLLCPAGAGNASASA [HC744] ?
FALSE

Per the assay record, what outcome was assigned to CARARKLADEAGNASASA [FS-2887] ?
FALSE

Could you please tell me the result logged for CAGARRSVIGAGNASASA [FS-1983] in this assay?
FALSE

// param item: CAVVVTSTWVAGNASASA [HC2150] ; yields the recorded call
FALSE

Every entry's value here was drawn from the supplement of paper PMC3545927.
